Reported log10 of binding signal is given for each of the following binders.
Test Target: SNAP25 Peptide 4 (PEP4, BoNT/A cleavage site region) (Homo sapiens, UniProt P60880 SEQ:1-24)
Sequence (P60880 174-197): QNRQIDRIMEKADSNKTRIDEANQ
Assay Summary: ELONA
Measurement Context: label: biotin
Readout Label: log10 of binding signal (log10 of the value in ELISA signal)

Binder	log10 of binding signal
PEP 4.11 (ssDNA) DNA: TTTTTAAGCCCACCCGAGTTCGTCCAGCGAACCACGCGCGTGTCGTGCCATG	1.83
PEP 4.15 (ssDNA) DNA: TTTTTAACACGACGTGACTGTGAGAGGCACAGTTTGGGGGCGTGGGCCCATG	1.57
PEP 4.10 (ssDNA) DNA: TTTTTAAGCCCACAAGACTGTGCGTCGCACAGATTGGCATCGTCGTGCCATG	1.88
PEP 4.16 (ssDNA) DNA: TTTTTAACACGACAGACCTGTGATGGTCGAACTCCATGCATGTGGGCCCATG	1.54
PEP 4.09 (ssDNA) DNA: TTTTTAACACGACATATGTTCGACGGACACAGTGTGTGGCGGTCGTGCCATG	1.93
PEP 4.12 (ssDNA) DNA: TTTTTAACACGACAGCCCTGTGCAGGCCGAACGGCGTTGATGTCGTGCCATG	1.79
PEP 4.02 (ssDNA) DNA: TTTTTAAGCCCACTACTGTTCGAAGGGCACAGTCCAGGCCGGTGGGCCCATG	2.32
PEP 4.19 (ssDNA) DNA: TTTTTAAGCCCACAAGCGTTCGGCTCTCATAGATCGTTGACGTGGGCCCATG	1.26
PEP 4.03 (ssDNA) DNA: TTTTTAACACGACAGGGGTTCGTAGGACACAGGTTGATGTTGTGGGCCCATG	2.31
PEP 4.14 (ssDNA) DNA: TTTTTAAGCCCACAAAAGTTCGGGCAGCACAGGTCGCTGAGGTCGTGCCATG	1.57
